The molecules listed here are annotated with their EC50.
# System: mouse PPAR α (Mus musculus, UniProt P23204)
# Construct: expressed in transfected cells; host or cells: HEK293T
# Sequence (P23204 239-466 limits assumed): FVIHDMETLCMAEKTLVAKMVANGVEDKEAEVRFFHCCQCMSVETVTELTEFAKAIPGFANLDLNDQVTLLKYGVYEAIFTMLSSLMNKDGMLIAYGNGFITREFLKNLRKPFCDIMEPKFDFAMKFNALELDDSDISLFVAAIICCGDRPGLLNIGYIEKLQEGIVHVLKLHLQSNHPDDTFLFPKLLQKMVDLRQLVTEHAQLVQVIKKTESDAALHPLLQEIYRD
# Experimental Protocol: PPAR α transactivation (GAL4 chimeric receptor luciferase reporter) assay
# Format: cell-based
# Experimental Context: pFR-Luc reporter, HEK293T cells, 20 hours incubation
# Protocol: Chimeric receptors were constructed in which the yeast transcription factor GAL4 DNA binding domain was fused to the ligand binding domain of either mouse PPARγ, mouse PPAR δ or mouse PPAR α in order to assess the ability of the compounds of the present invention to activate gene expression in a PPAR-dependent manner. […] Luciferase activity was measured as a reporter of gene expression. […]

Below are worked cases with known answers.
Molecule	Assay Value
O=C(O)Cn1ncc2cc(OCCCOc3ccc(Cl)cc3-n3nc4ccccc4n3)ccc21 [Compound 1700]	> 30 µM
CCCc1cc(CC(=O)O)ccc1OCCCOc1ccc(Cl)cc1-n1nc2ccccc2n1 [Compound 600]	≤ 10 µM
O=C(O)Cc1ccc(OCCCOc2ccc(Cl)cc2-n2nc3ccccc3n2)cc1 [Compound 500]	≤ 10 µM
CCCc1cc(CC(=O)O)ccc1OCCOc1ccc(Cl)cc1-n1nc2ccccc2n1 [Compound 900]	> 30 µM
Cc1cc(SCCCOc2ccc(Br)cc2-c2nc3ccccc3o2)ccc1OCC(=O)O [Compound 300]	≤ 10 µM
Cc1cccc2nn(-c3cc(Cl)ccc3OCCCOc3ccc(CC(=O)O)cc3)nc12 [Compound 1600]	≤ 10 µM

query: Consider the molecule O=C(O)Cc1ccc(OCCCOc2ccc(Cl)cc2-n2nc3c(n2)CCCC3)cc1 [Compound 1200] and give its measured EC50.
result: ≤ 10 µM
